- Test system: OVCAR-5 complex spheroids, viability
- ASSAY OVERVIEW: Anticancer human tumor OVCAR-5 cell line growth inhibition;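 note: spheroids exposed to agents for seven days; 100% = DMSO vehicle control wells viability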
- TEST CONDITIONS: second compound 10 µM; first compound 1 µM; stronger effect = lower value
- Description: Multicellular complex tumor spheroid response to LSD1 Inhibitor Iadademstat in combination with a variety of drugs and investigational agents in selected tumor cell lines The current study was undertaken to assess response to LSD1 inhibitors in combination with standard-of-care drugs and investigational agents in solid tumor complex spheroid models as well as in the K-562 leukemia. […] Compounds. […] If the clinical Cmax for an agent had not been determined, the highest concentration tested was 10 microM. […]
Catalogue of compounds with associated viability, T/C
// units = %; emit number, no label

// worked examples, viability, T/C included
CC(C)c1c(-c2ccccc2)nc2c(C#N)c[nH]n2c1=O + NC1CC1c1ccc(-c2cccc(O)c2)cc1
87.5
O=C(c1cc(Cc2n[nH]c(=O)c3ccccc23)ccc1F)N1CCN(C(=O)C2CC2)CC1 + NC1CC1c1ccc(-c2cccc(O)c2)cc1
81.9
CC(C)c1c(-c2ccccc2)nc2c(C#N)c[nH]n2c1=O + NC1CCC(NC2CC2c2ccccc2)CC1
79.9

With those in mind, consider the next compound.
Give its viability, T/C value. Item: CC1COCCN1c1cc(-c2ccnn2C)c2ccnc(-c3ccn[nH]3)c2n1 (configuration not stated) + NC1CC1c1ccc(-c2cccc(O)c2)cc1
26
